- target-or-system: FGFR3 (UniProt P22607)
- Sequence (P22607 whole entry, looked up): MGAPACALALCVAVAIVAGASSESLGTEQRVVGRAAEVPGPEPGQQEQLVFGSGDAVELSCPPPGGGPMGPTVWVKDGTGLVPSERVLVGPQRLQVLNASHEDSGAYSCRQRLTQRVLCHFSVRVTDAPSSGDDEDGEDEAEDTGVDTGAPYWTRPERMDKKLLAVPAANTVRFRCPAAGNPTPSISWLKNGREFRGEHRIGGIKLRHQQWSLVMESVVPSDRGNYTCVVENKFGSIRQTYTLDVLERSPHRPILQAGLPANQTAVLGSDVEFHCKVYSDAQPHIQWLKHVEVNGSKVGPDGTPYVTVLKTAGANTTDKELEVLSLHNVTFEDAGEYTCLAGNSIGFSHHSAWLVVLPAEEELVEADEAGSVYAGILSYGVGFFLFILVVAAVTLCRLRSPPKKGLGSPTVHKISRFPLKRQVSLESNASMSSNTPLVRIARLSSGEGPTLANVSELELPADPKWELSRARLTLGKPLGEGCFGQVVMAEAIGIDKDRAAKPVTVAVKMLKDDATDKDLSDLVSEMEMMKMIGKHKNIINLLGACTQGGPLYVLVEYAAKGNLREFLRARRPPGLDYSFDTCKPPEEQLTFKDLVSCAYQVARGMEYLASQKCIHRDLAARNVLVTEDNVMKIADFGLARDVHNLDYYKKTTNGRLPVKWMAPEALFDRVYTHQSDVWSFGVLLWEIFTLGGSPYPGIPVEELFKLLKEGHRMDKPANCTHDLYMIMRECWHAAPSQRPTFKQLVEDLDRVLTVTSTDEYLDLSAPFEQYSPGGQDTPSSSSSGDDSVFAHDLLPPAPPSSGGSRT
- test-name: phosphorylation enrichment, bacterial display (enrichment ratio); higher = better substrate or ligand; peptides without Tyr show the background;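 also: 11-residue human phosphosite peptides and single-mutation variants displayed on the E. coli surface, counted by deep sequencing, each peptide's frequency after selection divided by its frequency in the unselected input library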;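 also: frequency after pTyr selection over input frequency; kinase dosed for 20-30% of maximal phosphorylation in three min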
phosphorylation enrichment overview

- residues: "CLSHCYFSQIR [MCM3AP_Y873_L870S]"
  target-or-system: "FGFR3 (UniProt P22607)"
  phosphorylation enrichment: 0.607
- residues: "LDCNEYFRDLN [HPRT1_Y198_Y195C]"
  target-or-system: "FGFR3 (UniProt P22607)"
  phosphorylation enrichment: 1.34
- residues: "TEIGQYGNGLK [MORC2_Y100_Q96E]"
  target-or-system: "FGFR3 (UniProt P22607)"
  phosphorylation enrichment: 0.499
- residues: "CTTIHYNYMCN [TP53_Y234]"
  target-or-system: "FGFR3 (UniProt P22607)"
  phosphorylation enrichment: 0.692
- residues: "LRNIDYHRLDG [ATRX_Y2083_Y2084H]"
  target-or-system: "FGFR3 (UniProt P22607)"
  phosphorylation enrichment: 0.617
- residues: "CQKRKYIEIDS [SDAD1_Y580_S575C]"
  target-or-system: "FGFR3 (UniProt P22607)"
  phosphorylation enrichment: 0.6
- residues: "NLNGKYYKPRA [ANGPTL3_Y417_N418Y]"
  target-or-system: "FGFR3 (UniProt P22607)"
  phosphorylation enrichment: 0.445
- residues: "RRGTRYMSSRP [RPL21_Y13_F15S]"
  target-or-system: "FGFR3 (UniProt P22607)"
  phosphorylation enrichment: 0.633
- residues: "EEALFYLTRVE [SET_Y119_H118Y_YF]"
  target-or-system: "FGFR3 (UniProt P22607)"
  phosphorylation enrichment: 1.05
- residues: "HQKKPYCHAHN [NRAP_Y53]"
  target-or-system: "FGFR3 (UniProt P22607)"
  phosphorylation enrichment: 2.09
- residues: "KHASTYREAAT [DEAF1_Y483]"
  target-or-system: "FGFR3 (UniProt P22607)"
  phosphorylation enrichment: 0.39
- residues: "VVSLFYGTALF [OR10C1_Y251_M246V]"
  target-or-system: "FGFR3 (UniProt P22607)"
  phosphorylation enrichment: 0.804
- residues: "RNVYYYSYLLK [PTEN_Y178_Y174N]"
  target-or-system: "FGFR3 (UniProt P22607)"
  phosphorylation enrichment: 8.38
- residues: "TVDASYCGGRG [ANTXR2_Y380_Y381C]"
  target-or-system: "FGFR3 (UniProt P22607)"
  phosphorylation enrichment: 0.437
- residues: "ADKSAYLMGPN [MYH7_Y386_L390P]"
  target-or-system: "FGFR3 (UniProt P22607)"
  phosphorylation enrichment: 0.545
- residues: "EAEPYYCSLRD [NPHS1_Y1139_R1140C]"
  target-or-system: "FGFR3 (UniProt P22607)"
  phosphorylation enrichment: 1.31
- residues: "IEELTYVIKQD [STX5_Y137_I138V]"
  target-or-system: "FGFR3 (UniProt P22607)"
  phosphorylation enrichment: 0.954
- residues: "KLLLKYSFHDA [RNF213_Y4141_V4146A]"
  target-or-system: "FGFR3 (UniProt P22607)"
  phosphorylation enrichment: 0.672
- residues: "RGVAHYILQTF [SLC39A4_Y359_T357A]"
  target-or-system: "FGFR3 (UniProt P22607)"
  phosphorylation enrichment: 0.628
- residues: "YIATQYSLCPR [LBR_Y166_R169C]"
  target-or-system: "FGFR3 (UniProt P22607)"
  phosphorylation enrichment: 1.19
- residues: "GDGRFYMMEAI [PGM1_Y66_K68M]"
  target-or-system: "FGFR3 (UniProt P22607)"
  phosphorylation enrichment: 0.731
- residues: "ERTIEYLEEVV [HADHA_Y239_A244V]"
  target-or-system: "FGFR3 (UniProt P22607)"
  phosphorylation enrichment: 0.712
- residues: "DFFDLYGGKKF [PTPN11_Y66_E69K_YF]"
  target-or-system: "FGFR3 (UniProt P22607)"
  phosphorylation enrichment: 0.616
- residues: "HRGSLYLAIEY [TEK_Y899_Y897S]"
  target-or-system: "FGFR3 (UniProt P22607)"
  phosphorylation enrichment: 1.3
- residues: "GMTLSYLFWEP [NDUFS8_Y74_R77W]"
  target-or-system: "FGFR3 (UniProt P22607)"
  phosphorylation enrichment: 3.63
- residues: "EGNERYEGFCV [GRIA3_Y451_YF]"
  target-or-system: "FGFR3 (UniProt P22607)"
  phosphorylation enrichment: 0.697
- residues: "LAIERYVVVCK [RHO_Y136]"
  target-or-system: "FGFR3 (UniProt P22607)"
  phosphorylation enrichment: 1.21
- residues: "AEMTGYVVTRW [MAPK13_Y182]"
  target-or-system: "FGFR3 (UniProt P22607)"
  phosphorylation enrichment: 0.834

Entry source: the supplement of paper PMC10065799
